meta.source: ChEMBL document CHEMBL4038320

- target.of.assay: hERG (KCNH2) (Homo sapiens, UniProt Q12809)
- Sequence (Q12809 whole entry): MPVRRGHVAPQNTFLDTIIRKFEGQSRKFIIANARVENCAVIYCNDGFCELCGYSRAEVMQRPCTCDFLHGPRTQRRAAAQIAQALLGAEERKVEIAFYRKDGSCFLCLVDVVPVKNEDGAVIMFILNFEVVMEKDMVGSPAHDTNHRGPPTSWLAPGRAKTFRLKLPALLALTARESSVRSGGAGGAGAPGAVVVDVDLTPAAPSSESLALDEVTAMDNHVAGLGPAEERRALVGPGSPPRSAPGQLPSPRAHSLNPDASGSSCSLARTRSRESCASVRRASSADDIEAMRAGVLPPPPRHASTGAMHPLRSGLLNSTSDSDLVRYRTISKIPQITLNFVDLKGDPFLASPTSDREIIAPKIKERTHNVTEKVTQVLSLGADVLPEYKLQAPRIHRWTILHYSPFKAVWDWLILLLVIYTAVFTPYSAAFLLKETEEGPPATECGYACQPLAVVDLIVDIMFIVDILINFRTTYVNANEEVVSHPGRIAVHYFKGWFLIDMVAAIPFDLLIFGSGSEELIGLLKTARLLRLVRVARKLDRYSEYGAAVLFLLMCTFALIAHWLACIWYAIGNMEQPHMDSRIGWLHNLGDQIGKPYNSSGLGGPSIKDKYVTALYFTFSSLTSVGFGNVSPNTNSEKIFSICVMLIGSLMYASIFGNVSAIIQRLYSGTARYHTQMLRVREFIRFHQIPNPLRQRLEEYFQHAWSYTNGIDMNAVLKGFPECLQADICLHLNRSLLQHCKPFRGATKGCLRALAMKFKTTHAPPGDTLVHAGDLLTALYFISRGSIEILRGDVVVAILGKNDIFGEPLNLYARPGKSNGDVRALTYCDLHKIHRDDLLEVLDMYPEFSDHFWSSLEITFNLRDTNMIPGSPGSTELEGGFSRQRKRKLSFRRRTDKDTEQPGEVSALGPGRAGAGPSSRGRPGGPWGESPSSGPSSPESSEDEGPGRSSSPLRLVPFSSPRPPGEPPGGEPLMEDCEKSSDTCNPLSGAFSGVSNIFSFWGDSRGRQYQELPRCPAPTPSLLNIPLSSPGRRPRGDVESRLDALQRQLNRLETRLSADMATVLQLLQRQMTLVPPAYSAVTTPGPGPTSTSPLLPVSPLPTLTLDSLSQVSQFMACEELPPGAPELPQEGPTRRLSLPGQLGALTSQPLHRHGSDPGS
- protocol.description: Displacement of [3H]Astemizole from human ERG expressed in HEK293 cell membranes at 10 uM after 60 mins
- condition.details: membranes of HEK293 cells that express hERG, probe [3H]Astemizole
reported.endpoint: inhibition at 1 h, 10 µM (%)

>>> reading("Cn1c(CNc2cccc(C(=O)NCc3ccccc3C(F)(F)F)c2)nnc1-c1ccncc1")
31

---

- target.of.assay: CYP3A4 (Homo sapiens)
- Sequence (P08684 whole entry): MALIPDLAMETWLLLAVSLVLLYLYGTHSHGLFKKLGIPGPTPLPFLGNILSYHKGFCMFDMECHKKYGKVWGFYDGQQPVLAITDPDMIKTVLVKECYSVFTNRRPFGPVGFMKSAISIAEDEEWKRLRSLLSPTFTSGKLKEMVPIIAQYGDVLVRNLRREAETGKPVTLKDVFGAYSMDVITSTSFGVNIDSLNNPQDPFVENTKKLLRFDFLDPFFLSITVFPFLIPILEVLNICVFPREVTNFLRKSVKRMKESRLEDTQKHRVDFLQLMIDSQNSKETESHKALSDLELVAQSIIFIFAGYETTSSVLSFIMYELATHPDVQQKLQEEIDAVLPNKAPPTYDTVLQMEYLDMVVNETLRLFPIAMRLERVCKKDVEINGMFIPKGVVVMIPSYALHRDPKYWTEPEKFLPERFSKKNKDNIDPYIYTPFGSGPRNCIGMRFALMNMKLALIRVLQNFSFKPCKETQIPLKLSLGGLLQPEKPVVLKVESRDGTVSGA
- protocol.description: Inhibition of CYP3A4 (unknown origin) at 10 uM
- Format: ADME
Measured inhibition at 10 µM values are reported for all entries that follow.
reported.endpoint: inhibition at 10 µM (%)

>>> reading("COc1ccc(NCc2nc(-c3ccncc3)n[nH]2)cc1")
95
>>> reading("CCCn1c(CNc2cccc(C(=O)NCc3ccccc3)c2)nnc1-c1ccncc1")
67
>>> reading("O=C(NCc1ccccc1)Nc1cccc(NCc2nc(-c3ccncc3)n[nH]2)c1")
92
>>> reading("Cn1c(CNc2cccc(C(=O)NCc3cccc(C(F)(F)F)c3)c2)nnc1-c1ccncc1")
44
>>> reading("NS(=O)(=O)c1cccc(NCc2nc(-c3ccncc3)n[nH]2)c1")
25

---

- target.of.assay: G protein-coupled receptor kinase 5 (Homo sapiens, UniProt P34947)
- Sequence (P34947 whole entry): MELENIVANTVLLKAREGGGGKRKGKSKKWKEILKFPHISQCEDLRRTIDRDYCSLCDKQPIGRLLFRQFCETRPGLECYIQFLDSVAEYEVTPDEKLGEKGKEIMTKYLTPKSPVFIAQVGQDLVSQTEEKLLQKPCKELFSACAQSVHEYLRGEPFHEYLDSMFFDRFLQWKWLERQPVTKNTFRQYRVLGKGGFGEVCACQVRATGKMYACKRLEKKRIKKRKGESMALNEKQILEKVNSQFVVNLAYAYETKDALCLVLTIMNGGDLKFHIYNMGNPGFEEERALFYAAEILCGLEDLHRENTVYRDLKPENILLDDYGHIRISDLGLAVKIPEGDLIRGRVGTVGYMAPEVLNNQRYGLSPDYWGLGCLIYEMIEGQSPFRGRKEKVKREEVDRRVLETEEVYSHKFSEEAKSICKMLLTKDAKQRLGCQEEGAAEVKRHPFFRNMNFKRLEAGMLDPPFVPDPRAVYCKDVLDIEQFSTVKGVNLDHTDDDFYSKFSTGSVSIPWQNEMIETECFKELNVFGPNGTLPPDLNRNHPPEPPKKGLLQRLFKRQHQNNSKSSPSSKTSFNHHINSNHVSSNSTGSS
reported.endpoint: IC50

>>> reading("Cc1c(-c2ccncc2)n[nH]c1CNc1cccc(C(=O)NCc2ccccc2)c1")
"> 30 µM"
>>> reading("O=C(NCc1ccccc1C(F)(F)F)c1cccc(NCc2nnc3n2CCOc2cnccc2-3)c1")
"1.5 µM"
>>> reading("CNC(=O)c1cccc(NCc2nc(-c3ccncc3)n[nH]2)c1")
"> 30 µM"

---

Measured pIC50 values are reported for all entries that follow.
- target.of.assay: Protein kinase C alpha type (Homo sapiens, UniProt P17252)
- protocol.description: Inhibition of human PKCalpha active using MBP as substrate after 60 mins in presence of [gamma-32]ATP by scintillation counting
pIC50: −log10 of the molar value.
reported.endpoint: pIC50

>>> reading("COCCn1c(CNc2cccc(C(=O)NCc3ccccc3)c2)nnc1-c1ccncc1")
5.13
>>> reading("O=C(Cc1ccccc1)Nc1cc(NCc2nc(-c3ccncc3)n[nH]2)ccc1Cl")
5.77
>>> reading("COc1cccc(CNC(=O)c2cccc(NCc3nnc(-c4ccncc4)[nH]3)c2)c1")
5.49
>>> reading("CC(=O)Nc1cc(NCc2nc(-c3ccncc3)n[nH]2)ccc1Cl")
5.08
>>> reading("O=C(NCc1ccccc1)c1cccc(NCc2cc(-c3ccncc3)n[nH]2)c1")
5.14
>>> reading("O=C(Nc1ccccc1)c1cccc(NCc2nc(-c3ccncc3)n[nH]2)c1")
6.17
>>> reading("Cc1c(-c2ccncc2)n[nH]c1CNc1cccc(C(=O)NCc2ccccc2)c1")
5.32
>>> reading("CCCn1c(CNc2cccc(C(=O)NCc3ccccc3)c2)nnc1-c1ccncc1")
5.24
>>> reading("O=C(NCc1ccccc1Cl)c1cccc(NCc2nnc(-c3ccncc3)[nH]2)c1")
5.96
>>> reading("O=C(NCc1ccccc1)c1cccc(NCc2nc(-c3ccncc3)c[nH]2)c1")
5.44

---

- target.of.assay: UniProtKB P25098
- Sequence (P25098 whole entry): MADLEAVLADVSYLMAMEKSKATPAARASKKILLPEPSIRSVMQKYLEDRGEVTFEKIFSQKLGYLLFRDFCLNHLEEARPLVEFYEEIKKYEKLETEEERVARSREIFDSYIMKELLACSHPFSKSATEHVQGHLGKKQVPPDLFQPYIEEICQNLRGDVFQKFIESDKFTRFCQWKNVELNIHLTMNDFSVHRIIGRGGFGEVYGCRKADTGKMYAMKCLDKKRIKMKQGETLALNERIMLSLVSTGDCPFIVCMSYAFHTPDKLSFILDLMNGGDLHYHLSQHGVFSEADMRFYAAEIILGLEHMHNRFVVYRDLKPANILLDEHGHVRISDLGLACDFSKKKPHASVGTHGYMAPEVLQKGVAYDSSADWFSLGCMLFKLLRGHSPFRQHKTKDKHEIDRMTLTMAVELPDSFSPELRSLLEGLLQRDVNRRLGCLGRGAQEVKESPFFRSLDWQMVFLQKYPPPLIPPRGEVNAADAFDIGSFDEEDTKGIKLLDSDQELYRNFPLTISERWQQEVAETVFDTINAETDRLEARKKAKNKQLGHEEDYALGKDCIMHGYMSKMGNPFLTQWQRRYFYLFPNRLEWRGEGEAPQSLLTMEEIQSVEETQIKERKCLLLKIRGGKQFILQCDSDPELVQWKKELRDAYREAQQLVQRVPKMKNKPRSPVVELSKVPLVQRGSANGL
- protocol.description: Inhibition of human GRK2 expressed in HEK-B2 cells assessed as isoproterenol-stimulated cAMP accumulation preincubation for 20 mins followed by isoproterenol stimulation measured after 20 mins by cAMP ALPHA-screen assay
pEC50: −log10 of the molar value.
reported.endpoint: pEC50

>>> reading("Cn1c(CNc2cccc(C(=O)NCc3ccccc3)c2)nnc1-c1ccncc1")
2.72
>>> reading("Cn1c(CNc2cccc(C(=O)NCc3cccc(C(F)(F)F)c3)c2)nnc1-c1ccncc1")
3.66
>>> reading("Cn1c(CNc2cccc(C(=O)NCc3ccc(C(F)(F)F)cc3)c2)nnc1-c1ccncc1")
3.03
>>> reading("CCCn1c(CNc2cccc(C(=O)NCc3ccccc3)c2)nnc1-c1ccncc1")
4.59
